This listing pairs compounds with measured Relative expressed amount of hBmal1 (16 hours).
- Test system: hBmal1 gene
- test: Clock gene expression regulation, hBmal1 expressed amount by RT-PCR in cultured human skin fibroblast cells
- Format: cell-based
- condition-set: 50 ppm test substance, 16 hours after addition, relative to RPLP0; control 0.48; *p < 0.05

Record excerpt, results attached:
COC(=O)c1ccccc1N [Methyl 2-aminobenzoate]; 1.19*
COC(=O)c1ccccc1C [Methyl 2-methylbenzoate, methyl 2-methylbenzoate]; 1.01*
CNc1ccccc1C(=O)OC [Methyl 2-methylaminobenzoate]; 2.52*

Ask: Which Relative expressed amount of hBmal1 (16 hours) reading was recorded for the compound C=C1CC[C@H]2O[C@]2(C)CC[C@@H]2[C@@H]1CC2(C)C [Caryophyllene oxide] ?
Reply: 3.50*
